Assignment: determine reported activation at 10 µM for the given compounds.
- experimental-target: HDAC7 (Homo sapiens, UniProt Q8WUI4)
- Construct: endogenous in cells; host or cells: HeLa
- Sequence (Q8WUI4 whole entry): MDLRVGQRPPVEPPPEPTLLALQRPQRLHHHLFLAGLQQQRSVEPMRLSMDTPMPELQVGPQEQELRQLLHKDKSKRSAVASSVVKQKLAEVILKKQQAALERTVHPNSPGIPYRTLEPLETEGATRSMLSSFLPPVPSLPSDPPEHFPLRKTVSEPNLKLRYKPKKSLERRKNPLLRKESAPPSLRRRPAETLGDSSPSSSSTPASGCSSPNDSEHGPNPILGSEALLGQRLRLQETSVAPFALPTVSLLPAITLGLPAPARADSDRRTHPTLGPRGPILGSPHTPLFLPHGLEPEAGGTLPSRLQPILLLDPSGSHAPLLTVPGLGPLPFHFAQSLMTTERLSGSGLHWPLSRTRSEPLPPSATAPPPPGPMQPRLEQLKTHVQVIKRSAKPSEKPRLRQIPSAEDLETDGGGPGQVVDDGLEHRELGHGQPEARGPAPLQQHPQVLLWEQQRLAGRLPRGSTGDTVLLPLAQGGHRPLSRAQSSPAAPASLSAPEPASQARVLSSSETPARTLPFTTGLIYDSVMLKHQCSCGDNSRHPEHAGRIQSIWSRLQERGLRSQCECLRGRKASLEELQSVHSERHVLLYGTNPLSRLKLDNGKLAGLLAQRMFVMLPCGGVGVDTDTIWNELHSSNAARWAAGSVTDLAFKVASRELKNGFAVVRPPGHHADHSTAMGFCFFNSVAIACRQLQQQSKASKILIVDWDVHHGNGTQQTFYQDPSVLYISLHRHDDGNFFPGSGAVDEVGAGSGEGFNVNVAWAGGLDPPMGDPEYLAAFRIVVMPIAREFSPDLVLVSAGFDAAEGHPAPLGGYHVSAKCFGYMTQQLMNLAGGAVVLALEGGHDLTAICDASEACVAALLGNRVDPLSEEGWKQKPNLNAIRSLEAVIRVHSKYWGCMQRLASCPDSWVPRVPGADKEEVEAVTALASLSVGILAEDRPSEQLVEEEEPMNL
- assay-comment: Nur77 reporter gene assay in HeLa cells
- Type: cell-based
- condition-details: HeLa, 24 h, read-out: % of SAHA Response for HDAC7 at 10 μM (Nur77 reporter gene)
Answers are plain numbers, in %.

The examples below pair each entry with its known result.
>>> endpoint_result("O=C(C=C1c2ccccc2-c2ccccc21)NCCCCCCCC(=O)NO")
89
>>> endpoint_result("Cc1ccc(NC(=O)CCCCCNC(=O)C=C2c3ccccc3-c3ccccc32)c(N)c1")
4

The record that follows has no activation at 10 µM shown yet.
The reported value for `Nc1cc(F)ccc1NC(=O)CCCCCCCNC(=O)C=C1c2ccccc2-c2ccccc21` in terms of activation at 10 µM is 7

----------
- Tested on: total HDAC enzyme
- assay-comment: In vitro inhibition of total HDAC enzyme activity (BIOMOL HDAC Fluorimetric Assay/Drug Discovery Kit, HeLa extract)
- Assay type: biochemical
measurement-name: % of Inhibition on total HDAC enzyme at 30 μM (%)
Give bare numbers, in %.

Past entries and their recorded results:
>>> endpoint_result("Nc1cc(F)ccc1NC(=O)CCCCCNC(=O)C=C1c2ccccc2-c2ccccc21")
50
>>> endpoint_result("Nc1ccccc1NC(=O)CCCCCCCNC(=O)C=C1c2ccccc2-c2ccccc21")
48
>>> endpoint_result("Nc1cc(F)ccc1NC(=O)CCCCNC(=O)C=C1c2ccccc2-c2ccccc21")
31.7
>>> endpoint_result("Cc1ccc(NC(=O)CCCCCNC(=O)C=C2c3ccccc3-c3ccccc32)c(N)c1")
42.4
>>> endpoint_result("COc1ccc(NC(=O)CCCCCNC(=O)C=C2c3ccccc3-c3ccccc32)c(N)c1")
29.2

Give % of Inhibition on total HDAC enzyme at 30 μM for each of the items listed below.
1. O=C(C=C1c2ccccc2-c2ccccc21)NCCCCCCCC(=O)NO
2. Nc1ccccc1NC(=O)CCCCNC(=O)C=C1c2ccccc2-c2ccccc21

99.3
42

----------
- System: total HDAC enzyme
- assay-comment: In vitro inhibition of total HDAC enzyme activity (BIOMOL HDAC Fluorimetric Assay/Drug Discovery Kit, HeLa extract)
- Assay type: biochemical
For each entry below, report its % of Inhibition on total HDAC enzyme at 30 μM value.
Give bare numbers, in %.

>>> endpoint_result("Nc1cc(C(F)(F)F)ccc1NC(=O)CCCCCNC(=O)C=C1c2ccccc2-c2ccccc21 [Example 17]")
24.1
>>> endpoint_result("Nc1ccccc1NC(=O)CCCCCNC(=O)C=C1c2ccccc2-c2ccccc21 [Example 13]")
50
>>> endpoint_result("Nc1cc(F)ccc1NC(=O)CCCCCCCNC(=O)C=C1c2ccccc2-c2ccccc21 [Example 27]")
42.3

Attention now turns to another entry.
# molecule O=C(C=C1c2ccccc2-c2ccccc21)NCCCCCC(=O)NO [Example 11] ; its % of Inhibition on total HDAC enzyme at 30 μM = 99

----------
- System: HDAC4/5
- assay-comment: MEF2 reporter gene assay in HeLa cells
- Format: cell-based
- condition-details: relative to SAHA, 24 hours
measurement-name: % of SAHA Response for HDAC4/5 at 10 μM (MEF2 reporter gene) (%)
Numbers only, in %.

Example cases with answers are listed next.
>>> endpoint_result("Nc1cc(F)ccc1NC(=O)CCCCNC(=O)C=C1c2ccccc2-c2ccccc21")
30
>>> endpoint_result("Nc1ccccc1NC(=O)CCCCNC(=O)C=C1c2ccccc2-c2ccccc21")
31
>>> endpoint_result("Nc1cc(Cl)ccc1NC(=O)CCCCCNC(=O)C=C1c2ccccc2-c2ccccc21")
9

Continue with the next compound.
Entry `Cc1ccc(NC(=O)CCCCCNC(=O)C=C2c3ccccc3-c3ccccc32)c(N)c1` ; % of SAHA Response for HDAC4/5 at 10 μM (MEF2 reporter gene) = 15
